Each entry below carries its reported MIC.
- System: Mycoplasma synoviae
- Assay details: MIC, broth-dilution microtiter test (Table VII)
- Assay type: cell-based
- Test parameters: Mycoplasmopsis synoviae; M. synoviae; broth-dilution microtiter; read-out: MIC
All answers are understood in µg/mL, so give the number only.

Record excerpt, results attached:
Specify reported MIC for the compound shown: CCC1OC(=O)CC(O)C(C)C(OC2OC(C)C(O)C(N(C)C)C2O)C(CC=O)CC(C)C(=O)C=CC(C)=CC1CNC(=O)Cc1ccccc1 (stereo not shown) [Compound 10, 23-Deoxy-23-N-(phenylacetyl)amino-OMT] 0.19

Specify reported MIC for the compound shown: CCC1OC(=O)CC(O)C(C)C(OC2OC(C)C(O)C(N(C)C)C2O)C(CC=O)CC(C)C(=O)C=CC(C)=CC1CNC(=O)[C@H](NC(=O)OC(C)(C)C)c1ccccc1 (single isomer, unassigned) [Compound 11] 0.78

Specify reported MIC for the compound shown: CCC1OC(=O)CC(O)C(C)C(OC2OC(C)C(O)C(N(C)C)C2O)C(CC=O)CC(C)C(=O)C=CC(C)=CC1CN=[N+]=[N-] (stereo not shown) [Compound 8, 23-Deoxy-23-azido-OMT] 0.39

Further cases:
Specify reported MIC for the compound shown: CCC1OC(=O)CC(O)C(C)C(OC2OC(C)C(O)C(N(C)C)C2O)C(CC=O)CC(C)C(=O)C=CC(C)=CC1CF (stereo not shown) [Compound 15, 23-Deoxy-23-fluoro-OMT] 0.39

* * *

- Test system: Streptococcus pyogenes C203
- Assay details: MIC, standard agar-dilution assay (Table V)
- Assay type: cell-based
- Test parameters: Streptococcus pyogenes, C203
Each entry below carries its reported MIC.
Give your result as the value with the unit written after it.

Record excerpt, results attached:
Specify reported MIC for the compound shown: CCC1OC(=O)CC(O)C(C)C(OC2OC(C)C(O)C(N(C)C)C2O)C(CC=O)CC(C)C(=O)C=CC(C)=CC1CNC(=O)Cc1ccccc1 (stereo not shown) [Compound 10, 23-Deoxy-23-N-(phenylacetyl)amino-OMT] 0.25 µg/mL

Specify reported MIC for the compound shown: CCC1OC(=O)CC(O)C(C)C(OC2OC(C)C(O)C(N(C)C)C2O)C(CC=O)CC(C)C(=O)C=CC(C)(OC)C2CC12 (stereo not shown) [Compound 17] 1 µg/mL

Specify reported MIC for the compound shown: CCC1OC(=O)CC(O)C(C)C(OC2OC(C)C(O)C(N(C)C)C2O)C(CC=O)CC(C)C(=O)C=CC(C)=CC1CN=[N+]=[N-] (stereo not shown) [Compound 8, 23-Deoxy-23-azido-OMT] 0.125 µg/mL

Specify reported MIC for the compound shown: CCC1OC(=O)CC(O)C(C)C(OC2OC(C)C(O)C(N(C)C)C2O)C(CC=O)CC(C)C(=O)C=CC(C)(OCCc2ccccc2)C2CC12 (stereo not shown) [Compound 18] 1 µg/mL

Further cases:
Specify reported MIC for the compound shown: CCC1OC(=O)CC(O)C(C)C(OC2OC(C)C(O)C(N(C)C)C2O)C(CC=O)CC(C)C(=O)C=CC(C)=CC1CSc1nnnn1C (stereo not shown) [Compound 5] 0.25 µg/mL

* * *

Each entry below carries its reported MIC.
- System: Escherichia coli TEM
- Assay details: MIC, standard agar-dilution assay (Table V)
- Format: cell-based
- Test parameters: Escherichia coli
Counter-ions that a name gives are not always drawn.

Record excerpt, results attached:
Specify reported MIC for the compound shown: CCC1OC(=O)CC(O)C(C)C(OC2OC(C)C(O)C(N(C)C)C2O)C(CC=O)CC(C)C(=O)C=CC(C)=CC1CNC(=O)[C@H](N)c1ccccc1 (single isomer, unassigned) [Compound 12, bis(trifluoroacetate) salt] > 128 µg/mL

Specify reported MIC for the compound shown: CCC1OC(=O)CC(O)C(C)C(OC2OC(C)C(O)C(N(C)C)C2O)C(CC=O)CC(C)C(=O)C=CC(C)=CC1CF (centres unmarked) 8 µg/mL

Specify reported MIC for the compound shown: CCC1OC(=O)CC(O)C(C)C(OC2OC(C)C(O)C(N(C)C)C2O)C(CC=O)CC(C)C(=O)C=CC(C)=CC1CNC(=O)[C@H](NC(=O)OC(C)(C)C)c1ccccc1 (single isomer, unassigned) > 128 µg/mL

Specify reported MIC for the compound shown: CCC1OC(=O)CC(O)C(C)C(OC2OC(C)C(O)C(N(C)C)C2O)C(CC=O)CC(C)C(=O)C=CC(C)=CC1CN (centres unmarked) > 128 µg/mL

Further cases:
Specify reported MIC for the compound shown: CCC1OC(=O)CC(O)C(C)C(OC2OC(C)C(O)C(N(C)C)C2O)C(CC=O)CC(C)C(=O)C=CC(C)=CC1CSc1n[nH]c(=O)c(=O)n1C (centres unmarked) > 128 µg/mL

The values you see were collected from patent US4459290A.
